Target: T1, human PRLR on cells (endogenous on T47D, T47D#11, MCF7); introduced in HEK293/hPRLR/STAT5-Luc, 293/hPRLR, … (human, UniProt P16471 25-622)
T1 sequence: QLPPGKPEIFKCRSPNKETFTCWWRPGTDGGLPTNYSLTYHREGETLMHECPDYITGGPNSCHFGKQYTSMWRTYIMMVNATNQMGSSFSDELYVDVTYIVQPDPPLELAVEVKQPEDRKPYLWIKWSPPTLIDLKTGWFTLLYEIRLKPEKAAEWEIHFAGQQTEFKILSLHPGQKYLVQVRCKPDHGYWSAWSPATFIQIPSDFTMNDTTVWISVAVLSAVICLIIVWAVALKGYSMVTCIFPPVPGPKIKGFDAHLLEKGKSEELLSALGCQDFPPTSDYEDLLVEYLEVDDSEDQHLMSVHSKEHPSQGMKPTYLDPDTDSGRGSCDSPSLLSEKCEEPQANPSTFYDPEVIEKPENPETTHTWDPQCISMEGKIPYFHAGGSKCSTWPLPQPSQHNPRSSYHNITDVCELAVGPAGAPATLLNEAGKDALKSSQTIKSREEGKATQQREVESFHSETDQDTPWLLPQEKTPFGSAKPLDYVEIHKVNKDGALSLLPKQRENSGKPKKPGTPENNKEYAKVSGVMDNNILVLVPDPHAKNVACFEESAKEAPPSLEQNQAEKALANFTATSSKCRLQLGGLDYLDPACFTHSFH
Assay: cell-based or functional assay
Property name: Percent Blocking at 100 nM Antibody (STAT5-Luc reporter) (%)
Please state the figure in %; there is no need to write the unit.

Binder	Endpoint result
H1H6765P (antibody, human IgG1, V domains shown, human IgG1 Fc (H1H)) VH: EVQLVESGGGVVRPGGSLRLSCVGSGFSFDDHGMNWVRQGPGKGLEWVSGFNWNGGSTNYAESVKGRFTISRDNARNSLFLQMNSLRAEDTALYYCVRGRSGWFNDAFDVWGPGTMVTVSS VL: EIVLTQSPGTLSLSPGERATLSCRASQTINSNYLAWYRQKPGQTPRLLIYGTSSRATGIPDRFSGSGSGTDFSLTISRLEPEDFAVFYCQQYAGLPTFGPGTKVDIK	100
H1H6797P (antibody, human IgG1, V domains shown, human IgG1 Fc (H1H)) VH: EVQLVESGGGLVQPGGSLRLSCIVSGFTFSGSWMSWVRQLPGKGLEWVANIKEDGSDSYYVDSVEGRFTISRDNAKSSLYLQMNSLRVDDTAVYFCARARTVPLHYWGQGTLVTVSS VL: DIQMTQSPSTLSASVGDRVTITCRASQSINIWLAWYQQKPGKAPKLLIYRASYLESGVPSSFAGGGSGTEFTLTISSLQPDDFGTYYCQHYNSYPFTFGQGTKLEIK	0

Suppose we examine the binder H1H6976N (antibody, human IgG1, V domains shown, also called H2M6976N) VH: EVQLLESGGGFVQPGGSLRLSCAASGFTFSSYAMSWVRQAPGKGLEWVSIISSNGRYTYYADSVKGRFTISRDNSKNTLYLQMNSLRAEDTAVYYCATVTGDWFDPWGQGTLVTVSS VL: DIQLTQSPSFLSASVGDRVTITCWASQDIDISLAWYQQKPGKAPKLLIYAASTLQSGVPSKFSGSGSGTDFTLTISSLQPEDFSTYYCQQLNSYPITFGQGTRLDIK ; what Percent Blocking at 100 nM Antibody (STAT5-Luc reporter) value has been reported? 23
